Assay: Plasma pharmacokinetics, cycle 1 day 1, noncompartmental
Format: in vivo, Japanese patients
Details: human, plasma; 200 mg oral, cycle 1 day 1, n = 4; mean ± SD
MEASURED METRIC: AUC(0-inf) (µg·h/mL)
Respond numerically; units are µg·h/mL and should not be typed.

Which AUC(0-inf) is reported for this compound? C[C@]1(c2nc3c(C(N)=O)cccc3[nH]2)CCCN1
13.6

---

Assay: Plasma pharmacokinetics, cycle 1 day 1, noncompartmental
Format: in vivo, Japanese patients
Conditions: human, plasma; 200 mg oral, cycle 1 day 1, n = 4; harmonic mean ± pseudo SD
MEASURED METRIC: half-life (h)
Respond numerically; units are h and should not be typed.

Which half-life is reported for this compound? C[C@]1(c2nc3c(C(N)=O)cccc3[nH]2)CCCN1
4.6
